- method summary: Plasma, brain and lung levels after 7 days oral dosing
- Type: in vivo, Sprague Dawley Rats
- run conditions: Sprague Dawley, rat, plasma; 10 mg/kg po qd 7 days, 24 hrs after last dosing, Female; read-out: Plasma
assay endpoint: concentration at 24 h
Provide the measurement as a number trailed by its unit.

QUERY: Tell me the measured concentration at 24 h of C=CC(=O)Nc1cc(Nc2nccc(-n3ccc4cccnc43)n2)c(OC)cc1N(C)CCN(C)C , please.
RESULT: 20.8 ng/mL

---

- method summary: Pharmacokinetics in rats (IV, PO)
- Type: in vivo, rat
- run conditions: rat, plasma, po, independent of dose
assay endpoint: bioavailability (%)
Numbers only, in %.

QUERY: Tell me the measured bioavailability of C=CC(=O)Nc1cc(Nc2nccc(-n3ccc4cccnc43)n2)c(OC)cc1N(C)CCN(C)C [Compound 1] , please.
RESULT: 50

---

- method summary: Brain and plasma exposure after single oral dose
- Format: in vivo, Sprague Dawley rats
- run conditions: Sprague Dawley, rat, brain, po, 30 mg/kg, Compound 1 30 mg/kg PO, 7 hr, mean n=3; read-out: Brain/Plasma (ratios)
assay endpoint: Kp at 7 h
Numbers only.

QUERY: Tell me the measured Kp at 7 h of C=CC(=O)Nc1cc(Nc2nccc(-n3ccc4cccnc43)n2)c(OC)cc1N(C)CCN(C)C [Compound 1] , please.
RESULT: 28.3

---

- method summary: Brain and plasma exposure after 5 hour intravenous infusion
- Assay type: in vivo, Sprague Dawley rats
- run conditions: male, Sprague Dawley, rat, plasma, intravenous, 3 mg/kg, 3 mg/kg IV infusion over 5 h, 0.083 h, mean n=6; Compound 2 as metabolite
assay endpoint: concentration at 0.083 h (ng/mL)
One number for each entry, in ng/mL.

QUERY: Tell me the measured concentration at 0.083 h of C=CC(=O)Nc1cc(Nc2nccc(-n3ccc4cccnc43)n2)c(OC)cc1N(C)CCN(C)C , please.
RESULT: 13.2

---

- method summary: Brain and plasma exposure after single oral dose
- Format: in vivo, Sprague Dawley rats
- run conditions: Sprague Dawley, rat, brain, po, 30 mg/kg, Compound 1 30 mg/kg PO, 7 hr, individual animal; read-out: Brain Tissue Concentration
assay endpoint: concentration at 7 h (ng/g)
Answers are plain numbers, in ng/g.

QUERY: Tell me the measured concentration at 7 h of C=CC(=O)Nc1cc(Nc2nccc(-n3ccc4cccnc43)n2)c(OC)cc1N(C)CCN(C)C [Compound 1] , please.
RESULT: 7400

---

What concentration at 1 h was measured for each of the following?
- method summary: Brain and plasma exposure after 5 hour intravenous infusion
- Assay type: in vivo, Sprague Dawley rats
- run conditions: male, Sprague Dawley, rat, plasma, intravenous, 3 mg/kg, 3 mg/kg IV infusion over 5 h, 1 h, individual animal; Compound 2 as metabolite in Compound 1-dosed rats
Provide the measurement as a number trailed by its unit.

QUERY: Tell me the measured concentration at 1 h of C=CC(=O)Nc1cc(Nc2nccc(-n3ccc4cccnc43)n2)c(OC)cc1N(C)CCN(C)C , please.
RESULT: 63 ng/mL

QUERY: Tell me the measured concentration at 1 h of COc1cc2ncnc(Nc3ccc(F)c(Cl)c3)c2cc1OCCCN1CCOCC1 [Gefitinib, reference compound] , please.
RESULT: 115 ng/mL

Proceed to the following item.
QUERY: Tell me the measured concentration at 1 h of C=CC(=O)Nc1cc(Nc2nccc(-n3ccc4cccnc43)n2)c(OC)cc1N(C)CCNC , please.
RESULT: 3.24 ng/mL

All figures here come from patent US20240293405A1.
